target: IKK-β (Homo sapiens, UniProt O14920); construct: purchased Promega; assay: ADP-Glo kinase assay, IKK-β inhibition; format: biochemical; details: 10 µM; mean ± SD; read-out: % inh. at 10 µM IKK-β
Known inhibition at 10 µM of a selection of compounds

NC(=O)Nc1cc(-c2ccnc(NC(=O)C3CCCCC3)c2)sc1C(N)=O [Compound 51]    < 10%

In: Which inhibition at 10 µM value belongs to CC1(C)NC(=O)c2sc(-c3cccc(S(=O)(=O)N4CCCCC4)c3)cc2N1 [Compound 57] ?
Out: 17%

In: Which inhibition at 10 µM value belongs to CC(C)C(=O)Nc1cc(-c2cc(NC(N)=O)c(C(N)=O)s2)ccn1 [Compound 48] ?
Out: < 10%

====

experiment: Cytotoxicity, PrestoBlue cell viability assay in BV-2 cells; format: cell-based, mouse; conditions: mouse, BV-2 microglial cells, log C -5.5 (footnote c; printed in column 50 µM); read-out: immunotoxicity in BV-2 cells, % of cell viability
assay readout: viability at 24 h, 3.16 µM (%)
Hi! Could you send only the number? It should be in %, unit omitted.

In: Which viability at 24 h, 3.16 µM value belongs to CC(C)C(=O)Nc1cc(-c2cc3c(s2)C(=O)NC(C)(C)N3)ccn1 [Compound 39] ?
Out: 73

====

Known inhibition at 10 µM of a selection of molecules
Target: IKK-β (Homo sapiens)
Construct: purchased Promega
Sequence (O14920 1-756): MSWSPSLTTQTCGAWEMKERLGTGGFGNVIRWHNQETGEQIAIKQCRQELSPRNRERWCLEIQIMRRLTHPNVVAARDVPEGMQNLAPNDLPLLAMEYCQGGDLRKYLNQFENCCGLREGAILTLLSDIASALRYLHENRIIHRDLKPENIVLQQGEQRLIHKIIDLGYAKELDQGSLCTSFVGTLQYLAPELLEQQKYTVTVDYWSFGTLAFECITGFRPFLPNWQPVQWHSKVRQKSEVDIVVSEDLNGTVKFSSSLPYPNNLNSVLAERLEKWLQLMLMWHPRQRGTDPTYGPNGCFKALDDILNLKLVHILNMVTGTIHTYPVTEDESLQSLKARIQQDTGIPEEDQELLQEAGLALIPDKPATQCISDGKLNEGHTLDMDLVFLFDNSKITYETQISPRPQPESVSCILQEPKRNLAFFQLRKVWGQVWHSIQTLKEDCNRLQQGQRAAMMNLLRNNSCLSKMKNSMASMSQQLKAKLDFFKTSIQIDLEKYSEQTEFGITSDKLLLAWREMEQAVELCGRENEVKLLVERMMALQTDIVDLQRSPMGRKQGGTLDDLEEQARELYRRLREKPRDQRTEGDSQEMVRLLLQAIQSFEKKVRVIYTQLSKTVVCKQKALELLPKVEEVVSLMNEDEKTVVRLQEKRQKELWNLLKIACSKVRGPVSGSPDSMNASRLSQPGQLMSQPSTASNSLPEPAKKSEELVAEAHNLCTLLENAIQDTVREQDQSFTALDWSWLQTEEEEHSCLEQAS
Assay: ADP-Glo kinase assay, IKK-β inhibition
Format: biochemical
Details: 10 µM; mean ± SD; read-out: % inh. at 10 µM IKK-β

CC1(C)NC(=O)c2sc(-c3ccnc(NC(=O)C4CCC4)c3)cc2N1    32%
NC(=O)Nc1cc(-c2ccnc(NC(=O)c3ccccc3)c2)sc1C(N)=O    30%
CC1(C)NC(=O)c2sc(-c3ccnc(NC(=O)C4CCCCC4)c3)cc2N1    18%

In: Which inhibition at 10 µM value belongs to `CCS(=O)(=O)Nc1cc(-c2cc3c(s2)C(=O)NC(C)(C)N3)ccn1` ?
Out: < 10%

In: Which inhibition at 10 µM value belongs to `CC(C)C(=O)Nc1cc(-c2cc3c(s2)C(=O)NC(C)(C)N3)ccn1` ?
Out: 33%

====

Here's a batch of compounds along with measured pIC50 for IKK-β (Homo sapiens).
By convention, pIC50 is the negative base-10 log of a molar concentration.

Consider the following illustrative entries.
NC(=O)Nc1cc(-c2ccc(F)cc2)sc1C(N)=O [III, reference compound]    6.39
NC(=O)Nc1cc(-c2cccc(NC(=O)C3CC3)c2)sc1C(N)=O    6.37

In: Return pIC50 measured with IKK-β (Homo sapiens) given this compound: `CC1(C)NC(=O)c2sc(-c3ccnc(NC(=O)C4CC4)c3)cc2N1`
Out: 5.36

In: Return pIC50 measured with IKK-β (Homo sapiens) given this compound: `O=C1NC2(CCCC2)Nc2cc(-c3ccnc(NC(=O)C4CC4)c3)sc21`
Out: 5.13

====

Assay: Cytotoxicity, PrestoBlue cell viability assay in BV-2 cells
Type: cell-based, mouse
Conditions: mouse, BV-2 microglial cells, log C -6.5 (footnote c; printed in column 10 µM); read-out: immunotoxicity in BV-2 cells, % of cell viability
Description: We assessed their cytotoxic effects at five concentrations (0.1, 1, 10, 50, and 100 µM) in HT-22 (mouse hippocampal neuronal cells) and BV-2 (mouse microglial cells) cell lines using a fluorometric assay with PrestoBlue™ cell viability reagent (Table 4, Table S2 in the SI). […] Cell viability was evaluated using the PrestoBlue reagent (Thermo Fisher), according to the manufacturer’s procedures. […]
assay readout: viability at 24 h, 0.316 µM

In: Which viability at 24 h, 0.316 µM value belongs to `CC(C)C(=O)Nc1cc(-c2cc3c(s2)C(=O)NC(C)(C)N3)ccn1` ?
Out: 105%

====

assay: Cytotoxicity, PrestoBlue cell viability assay in BV-2 cells; assay type: cell-based, mouse; conditions: mouse, BV-2 microglial cells, log C -5 (footnote c; printed in column 100 µM); read-out: immunotoxicity in BV-2 cells, % of cell viability
assay readout: viability at 24 h, 10 µM (%)
Hi! Could you send only the number? It should be in %, unit omitted.

In: Which viability at 24 h, 10 µM value belongs to `CC(C)C(=O)Nc1cc(-c2cc3c(s2)C(=O)NC(C)(C)N3)ccn1` ?
Out: 14

====

Known viability at 24 h, 50 µM of a selection of molecules
assay: Cytotoxicity, PrestoBlue cell viability assay in HT-22 cells; assay type: cell-based, mouse; settings: mouse, HT-22 hippocampal neuronal cells, 50 µM (log C -4.3); 24 h; read-out: neurotoxicity in HT-22 cells, % of cell viability
Hi! Could you send only the number? It should be in %, unit omitted.

Consider the following illustrative entries.
NC(=O)Nc1cc(-c2cccc(NC(=O)C3CC3)c2)sc1C(N)=O [Compound 58]    54
COc1nc(-c2ccnc(NC(=O)C3CC3)c2)sc1C(N)=O [II, reference compound]    77
CC(C)C(=O)Nc1cc(-c2cc3c(s2)C(=O)NC(C)(C)N3)ccn1 [Compound 39]    35

In: Which viability at 24 h, 50 µM value belongs to O=C1NC2(CCCC2)Nc2cc(-c3ccnc(NC(=O)C4CC4)c3)sc21 [Compound 60] ?
Out: 36

In: Which viability at 24 h, 50 µM value belongs to NC(=O)Nc1cc(-c2ccnc(NC(=O)C3CC3)c2)sc1C(N)=O [Compound 49] ?
Out: 88

In: Which viability at 24 h, 50 µM value belongs to CC(C)C(=O)Nc1cc(-c2cc(NC(N)=O)c(C(N)=O)s2)ccn1 [Compound 48] ?
Out: 52

In: Which viability at 24 h, 50 µM value belongs to O=C1NC2(CCOC2)Nc2cc(-c3ccnc(NC(=O)C4CC4)c3)sc21 (centres unmarked) [Compound 62] ?
Out: 35

In: Which viability at 24 h, 50 µM value belongs to CC1(C)NC(=O)c2sc(-c3ccnc(NC(=O)C4CC4)c3)cc2N1 [Compound 40] ?
Out: 28

====

Known viability at 24 h, 0.1 µM of a selection of compounds
assay: Cytotoxicity, PrestoBlue cell viability assay in HT-22 cells; format: cell-based, mouse; conditions: mouse, HT-22 hippocampal neuronal cells; 24 h; read-out: neurotoxicity in HT-22 cells, % of cell viability
Hi! Could you send only the number? It should be in %, unit omitted.

COc1nc(-c2ccnc(NC(=O)C3CC3)c2)sc1C(N)=O [II, reference compound]    107
NC(=O)Nc1cc(-c2cccc(NC(=O)C3CC3)c2)sc1C(N)=O    94
CC(C)C(=O)Nc1cc(-c2cc(NC(N)=O)c(C(N)=O)s2)ccn1    92
O=C1NC2(CCCC2)Nc2cc(-c3ccnc(NC(=O)C4CC4)c3)sc21    101
O=C1NC2(CCOC2)Nc2cc(-c3ccnc(NC(=O)C4CC4)c3)sc21 (centres unmarked)    106

In: Which viability at 24 h, 0.1 µM value belongs to `CC(C)C(=O)Nc1cc(-c2cc3c(s2)C(=O)NC(C)(C)N3)ccn1` ?
Out: 91

In: Which viability at 24 h, 0.1 µM value belongs to `CC1(C)NC(=O)c2sc(-c3ccnc(NC(=O)C4CC4)c3)cc2N1` ?
Out: 100

In: Which viability at 24 h, 0.1 µM value belongs to `NC(=O)Nc1cc(-c2ccnc(NC(=O)C3CC3)c2)sc1C(N)=O` ?
Out: 95
